test system: leukemia cell lines (KCL22, MEL, THP-1, HL60, HEL, U937, KG-1, and K562); assay: MTT assay cell viability, leukemia cell lines; assay type: cell-based; conditions: range over cell lines, read-out: IC50 values
pIC50: −log10 of the molar value.
parameter_measured: pIC50

Q: Tell me measured pIC50 for NCC(=O)NC[C@H]1COc2ccccc2O1 [Formula 1] please.
Result: 3.66 to 5.22
